target: PTH1R‐WT (Homo sapiens, UniProt Q03431)
Construct: expressed in transfected cells; plasmid TG-906 made by VectorBuilder
Sequence (Q03431 27-593 E90Y/S91D/E92V/E93P/K95Y/E96A): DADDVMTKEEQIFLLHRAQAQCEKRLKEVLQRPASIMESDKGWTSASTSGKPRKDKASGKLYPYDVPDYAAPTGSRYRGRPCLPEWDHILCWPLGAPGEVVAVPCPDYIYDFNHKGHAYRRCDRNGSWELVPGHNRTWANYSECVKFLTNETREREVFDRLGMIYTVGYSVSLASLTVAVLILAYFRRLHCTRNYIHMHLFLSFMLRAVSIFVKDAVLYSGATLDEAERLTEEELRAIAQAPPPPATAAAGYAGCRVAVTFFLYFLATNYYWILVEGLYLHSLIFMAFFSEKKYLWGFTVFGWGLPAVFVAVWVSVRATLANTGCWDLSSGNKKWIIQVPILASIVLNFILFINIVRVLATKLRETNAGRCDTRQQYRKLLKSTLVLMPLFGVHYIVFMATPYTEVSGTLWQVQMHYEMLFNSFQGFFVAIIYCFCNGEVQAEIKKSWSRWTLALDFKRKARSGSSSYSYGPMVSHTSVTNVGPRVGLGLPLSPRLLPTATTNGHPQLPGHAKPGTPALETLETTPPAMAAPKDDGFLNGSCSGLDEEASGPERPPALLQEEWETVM
methodDescription: GloSensor cAMP signaling assay in transiently transfected GS-22a cells
Type: cell-based
conditions: Table 2, N-terminal analogs, GS-22a cells, means of four or three (M-PTH(1-11)) experiments, each in duplicate
No end group written: not given here.
assayEndpoint: pEC50
# reply with the number alone; pEC50 is -log10 of concentration in mol/L

Input line: What measured pEC50 goes with SVSEIQLMHNLGKHLNSMERVEWLRKKL-NH2 [PTH(1‐28), hPTH(1‐28)] ?
Output line: 9.11

###

target: PTH1R‐R186H (Homo sapiens, UniProt Q03431, R186H)
Construct: expressed in transfected cells; plasmid TG-907 made by VectorBuilder
Sequence (Q03431 27-593 E90Y/S91D/E92V/E93P/K95Y/E96A/R186H): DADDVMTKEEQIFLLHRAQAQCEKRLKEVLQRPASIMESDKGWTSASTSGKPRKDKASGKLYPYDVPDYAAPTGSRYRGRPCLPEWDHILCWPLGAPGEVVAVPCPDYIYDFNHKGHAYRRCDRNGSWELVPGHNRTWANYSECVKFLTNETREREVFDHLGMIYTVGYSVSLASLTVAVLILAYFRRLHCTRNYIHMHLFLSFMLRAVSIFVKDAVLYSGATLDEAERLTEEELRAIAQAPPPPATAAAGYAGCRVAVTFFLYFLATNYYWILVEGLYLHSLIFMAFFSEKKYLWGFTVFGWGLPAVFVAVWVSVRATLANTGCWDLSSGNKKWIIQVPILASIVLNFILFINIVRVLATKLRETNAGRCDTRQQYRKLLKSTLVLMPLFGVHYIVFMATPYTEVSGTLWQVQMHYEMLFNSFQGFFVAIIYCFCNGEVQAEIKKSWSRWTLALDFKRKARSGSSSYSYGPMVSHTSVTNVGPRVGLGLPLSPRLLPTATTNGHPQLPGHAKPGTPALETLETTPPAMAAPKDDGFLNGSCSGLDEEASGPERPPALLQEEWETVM
methodDescription: GloSensor cAMP signaling assay in transiently transfected GS-22a cells
Type: cell-based
conditions: Table 2, N-terminal analogs, GS-22a cells, means of four or three (M-PTH(1-11)) experiments, each in duplicate
No end group written: not given here.
assayEndpoint: EC50
# do not omit the unit; it follows the number

Input line: What reported EC50 corresponds to SVSEIQLMHNLGKHLNSMERVEWLRKKL-NH2 [PTH(1‐28), hPTH(1‐28)] on PTH1R‐R186H (Homo sapiens, UniProt Q03431, R186H)?
Output line: 0.575 nM
